experiment: Half life in dog at 3 mg/kg, po; type: ADME, organism-based, Canis lupus familiaris; design: dose 3 mg/kg, route oral; conditions: in vivo
observation.type: half-life (h)
Give a bare numeral; the unit h is implied.

Exam item: Look up half-life for this compound: C[C@H]1O[C@@H](n2cc(-c3ccccc3)c3c(NCC(=O)NC4CC4)ncnc32)[C@H](O)[C@@H]1O
Marked response: 2

----------
assay: Solubility in water at pH 7.4
Please map values of solubility to classes as shown: small value: < 20 µg/mL; mid value: ≥ 20 µg/mL and < 300 µg/mL; large value: ≥ 300 µg/mL

Exam item: Using the reported solubility, which band applies to C[C@H]1O[C@@H](n2cc(-c3ccccc3)c3c(Nc4ccc(F)cc4)ncnc32)[C@H](O)[C@@H]1O ?
Marked response: small value

Exam item: Using the reported solubility, which band applies to O=C(CNc1ncnc2c1c(-c1ccccc1)cn2[C@@H]1O[C@H](CO)[C@@H](O)[C@H]1O)NC1CC1 ?
Marked response: mid value

Exam item: Using the reported solubility, which band applies to CCONC(=O)CNc1ncnc2c1c(-c1ccccc1)cn2[C@@H]1O[C@H](C)[C@@H](O)[C@H]1O ?
Marked response: large value

Exam item: Using the reported solubility, which band applies to O=C(CNc1ncnc2c1c(-c1ccccc1)cn2COCCO)Nc1ccc(Cl)cc1 ?
Marked response: small value

Exam item: Using the reported solubility, which band applies to O=C(CNc1ncnc2c1c(-c1ccccc1)cn2[C@@H]1OC[C@@H](O)[C@H]1O)NC1CC1 ?
Marked response: mid value

Exam item: Using the reported solubility, which band applies to C[C@H]1O[C@@H](n2cc(-c3ccccc3)c3c(Nc4ccccc4)ncnc32)[C@H](O)[C@@H]1O ?
Marked response: small value

Exam item: Using the reported solubility, which band applies to CC(C)CNc1ncnc2c1c(-c1ccccc1)cn2[C@@H]1O[C@H](C)[C@@H](O)[C@H]1O ?
Marked response: small value

Exam item: Using the reported solubility, which band applies to C[C@H]1O[C@@H](n2cc(-c3ccccc3)c3c(NCC(=O)NCCN(C)C)ncnc32)[C@H](O)[C@@H]1O ?
Marked response: large value

Exam item: Using the reported solubility, which band applies to CNC(=O)Nc1ncnc2c1c(-c1ccccc1)cn2[C@@H]1O[C@H](C)[C@@H](O)[C@H]1O ?
Marked response: mid value

Exam item: Using the reported solubility, which band applies to CCCNc1ncnc2c1c(-c1ccccc1)cn2[C@@H]1O[C@H](C)[C@@H](O)[C@H]1O ?
Marked response: small value

Exam item: Using the reported solubility, which band applies to CCN(CC)CCNC(=O)CNc1ncnc2c1c(-c1ccccc1)cn2[C@@H]1O[C@H](C)[C@@H](O)[C@H]1O ?
Marked response: large value

Exam item: Using the reported solubility, which band applies to C[C@H]1O[C@@H](n2cc(-c3ccccc3)c3c(NCC(=O)NC4CC4)ncnc32)[C@H](O)[C@@H]1O ?
Marked response: mid value

Exam item: Using the reported solubility, which band applies to C[C@H]1O[C@@H](n2cc(I)c3c(NCC(=O)NC4CC4)ncnc32)[C@H](O)[C@@H]1O ?
Marked response: small value

Exam item: Using the reported solubility, which band applies to C[C@H]1O[C@@H](n2cc(-c3ccccc3)c3c(NCC(=O)NC4CCC4)ncnc32)[C@H](O)[C@@H]1O ?
Marked response: mid value

Exam item: Using the reported solubility, which band applies to C[C@H]1O[C@@H](n2cc(-c3ccccc3)c3c(NC/C(S)=N\C4CC4)ncnc32)[C@H](O)[C@@H]1O ?
Marked response: small value

Exam item: Using the reported solubility, which band applies to O=C(CNc1ncnc2c1c(-c1ccccc1)nn2[C@@H]1O[C@H](CO)[C@@H](O)[C@H]1O)NC1CC1 ?
Marked response: large value

Exam item: Using the reported solubility, which band applies to C[C@H](Nc1ncnc2c1c(-c1ccccc1)cn2[C@@H]1O[C@H](C)[C@@H](O)[C@H]1O)C(=O)NC1CC1 ?
Marked response: large value

Measured values drawn from ChEMBL document CHEMBL1141192 for this set.
